# PROTOCOL NOTES: AUC (0 to 24 hrs) in dog at 1 mg/kg, iv and 3 mg/kg, po
# Assay type: ADME, organism-based, Canis lupus familiaris
# CONDITION: plasma
QUANTITY NAME: AUC(0-t)

structure_notation=Cc1nc(NCC(F)(F)F)nc(N[C@@H]2C[C@H](CO)[C@@H](O)[C@H]2O)c1-c1nc2ccccc2s1.Cl quantity_name=AUC(0-t) result="7.8 µM·h"

====

# PROTOCOL NOTES: Cytotoxicity against human hepatoma cells after 3 days by MTS assay
# Type: cell-based
# CONDITION: human hepatoma cells
Below: a set of entries, each annotated with reported CC50 at 72 h.
QUANTITY NAME: CC50 at 72 h (µM)

structure_notation=Cc1nc(NCc2ccncc2)nc(N[C@@H]2C[C@H](CO)[C@@H](O)[C@H]2O)c1-c1nc2ccccc2s1 quantitative_readout=9
structure_notation=Cc1nc(NC(C)(C)C)nc(N[C@@H]2C[C@H](CO)[C@@H](O)[C@H]2O)c1-c1nc2ccccc2s1 quantitative_readout=13
structure_notation=Cc1nc(NCc2ccccc2)nc(N[C@@H]2C[C@H](CO)[C@@H](O)[C@H]2O)c1-c1nc2ccccc2s1 quantitative_readout=7
structure_notation=CNc1ccc2nc(-c3c(Cl)nc(N)nc3N[C@@H]3C[C@H](CO)[C@@H](O)[C@H]3O)sc2c1 quantitative_readout=16

====

# PROTOCOL NOTES: Cytotoxicity against human hepatoma cells assessed as decrease in RNA level after 3 days by RT-PCR analysis
# Assay type: cell-based
# CONDITION: 72 h
QUANTITY NAME: CC50 (µM)

structure_notation=Cc1nc(NCC(F)(F)F)nc(N[C@@H]2C[C@H](CO)[C@@H](O)[C@H]2O)c1-c1nc2ccccc2s1.Cl quantity_name=CC50 units_label=µM quantitative_readout=25

====

# PROTOCOL NOTES: Cytotoxicity against human hepatoma cells assessed as decrease in RNA level after 3 days by RT-PCR analysis
# Assay type: cell-based
# CONDITION: human hepatoma cells
QUANTITY NAME: CC50 at 72 h (µM)

structure_notation=OC[C@H]1C[C@@H](Nc2nc(NCC(F)(F)F)nc(C3CC3)c2-c2nc3ccccc3s2)[C@H](O)[C@@H]1O qualifying_sign=> quantitative_readout=25
structure_notation=Cc1nc(NCC(C)C)nc(N[C@@H]2C[C@H](CO)[C@@H](O)[C@H]2O)c1-c1nc2ccccc2s1 qualifying_sign== quantitative_readout=10
structure_notation=Nc1nc(Cl)c(-c2nc3ccccc3s2)c(N[C@@H]2C[C@H](CO)[C@@H](O)[C@H]2O)n1 qualifying_sign== quantitative_readout=14
structure_notation=CNc1ccc2nc(-c3c(Cl)nc(N)nc3N[C@@H]3C[C@H](CO)[C@@H](O)[C@H]3O)sc2c1 qualifying_sign== quantitative_readout=6
structure_notation=Cc1nc(Nc2ncco2)nc(N[C@@H]2C[C@H](CO)[C@@H](O)[C@H]2O)c1-c1nc2ccccc2s1 qualifying_sign=> quantitative_readout=25
structure_notation=Nc1nc(Cl)c(-c2ccccn2)c(N[C@@H]2C[C@H](CO)[C@@H](O)[C@H]2O)n1 qualifying_sign=> quantitative_readout=25
structure_notation=Nc1nc(Cl)c(-c2nccs2)c(N[C@@H]2C[C@H](CO)[C@@H](O)[C@H]2O)n1 qualifying_sign=> quantitative_readout=25
structure_notation=Cc1nc(NCC2CCC2)nc(N[C@@H]2C[C@H](CO)[C@@H](O)[C@H]2O)c1-c1nc2ccccc2s1 qualifying_sign=> quantitative_readout=25
structure_notation=Cc1nc(NCc2ccccn2)nc(N[C@@H]2C[C@H](CO)[C@@H](O)[C@H]2O)c1-c1nc2ccccc2s1 qualifying_sign== quantitative_readout=13
structure_notation=CCOCCNc1nc(C)c(-c2nc3ccccc3s2)c(N[C@@H]2C[C@H](CO)[C@@H](O)[C@H]2O)n1 qualifying_sign== quantitative_readout=18
structure_notation=Cc1nc(NC(C)C)nc(N[C@@H]2C[C@H](CO)[C@@H](O)[C@H]2O)c1-c1nc2ccccc2s1 qualifying_sign== quantitative_readout=13
structure_notation=Cc1nc(Nc2ccccc2)nc(N[C@@H]2C[C@H](CO)[C@@H](O)[C@H]2O)c1-c1nc2ccccc2s1 qualifying_sign=> quantitative_readout=25
structure_notation=CCc1nc(N(C)C)nc(N[C@@H]2C[C@H](CO)[C@@H](O)[C@H]2O)c1-c1nc2ccccc2s1 qualifying_sign=> quantitative_readout=25
structure_notation=Cc1nc(NCCN2CCOCC2)nc(N[C@@H]2C[C@H](CO)[C@@H](O)[C@H]2O)c1-c1nc2ccccc2s1 qualifying_sign== quantitative_readout=25
structure_notation=Cc1nc(N(C)C)nc(N[C@@H]2C[C@H](CO)[C@@H](O)[C@H]2O)c1-c1nc2ccccc2s1 qualifying_sign== quantitative_readout=18
structure_notation=Cc1nc(N[C@@H](C)C(F)(F)F)nc(N[C@@H]2C[C@H](CO)[C@@H](O)[C@H]2O)c1-c1nc2ccccc2s1 qualifying_sign=> quantitative_readout=25
structure_notation=Nc1nc(Cl)c(-c2cccs2)c(N[C@@H]2C[C@H](CO)[C@@H](O)[C@H]2O)n1 qualifying_sign=> quantitative_readout=25
structure_notation=Cc1nc(NCCOC(C)C)nc(N[C@@H]2C[C@H](CO)[C@@H](O)[C@H]2O)c1-c1nc2ccccc2s1 qualifying_sign== quantitative_readout=8
structure_notation=Nc1nc(Cl)c(-c2cc3ccccc3s2)c(N[C@@H]2C[C@H](CO)[C@@H](O)[C@H]2O)n1 qualifying_sign=> quantitative_readout=25
structure_notation=Cc1nc(NCc2cccnc2)nc(N[C@@H]2C[C@H](CO)[C@@H](O)[C@H]2O)c1-c1nc2ccccc2s1 qualifying_sign== quantitative_readout=5
structure_notation=Cc1nc(NCc2ccsc2)nc(N[C@@H]2C[C@H](CO)[C@@H](O)[C@H]2O)c1-c1nc2ccccc2s1 qualifying_sign== quantitative_readout=6
structure_notation=CN(C)c1ccc2nc(-c3c(Cl)nc(N)nc3N[C@@H]3C[C@H](CO)[C@@H](O)[C@H]3O)sc2c1 qualifying_sign=> quantitative_readout=25
structure_notation=CCOc1ccc2nc(-c3c(Cl)nc(N)nc3N[C@@H]3C[C@H](CO)[C@@H](O)[C@H]3O)sc2c1 qualifying_sign=> quantitative_readout=25
structure_notation=Nc1nc(Cl)c(-c2ccco2)c(N[C@@H]2C[C@H](CO)[C@@H](O)[C@H]2O)n1 qualifying_sign=> quantitative_readout=25
structure_notation=COCCNc1nc(C)c(-c2nc3ccccc3s2)c(N[C@@H]2C[C@H](CO)[C@@H](O)[C@H]2O)n1 qualifying_sign== quantitative_readout=21
structure_notation=Nc1nc(Cl)c(-c2nc3ccccc3o2)c(N[C@@H]2C[C@H](CO)[C@@H](O)[C@H]2O)n1 qualifying_sign== quantitative_readout=12
structure_notation=Cc1nc(N[C@H](C)C(F)(F)F)nc(N[C@@H]2C[C@H](CO)[C@@H](O)[C@H]2O)c1-c1nc2ccccc2s1 qualifying_sign== quantitative_readout=21
structure_notation=CCOC(=O)NCCNc1nc(C)c(-c2nc3ccccc3s2)c(N[C@@H]2C[C@H](CO)[C@@H](O)[C@H]2O)n1 qualifying_sign== quantitative_readout=12
structure_notation=Cc1nc(NCc2nccs2)nc(N[C@@H]2C[C@H](CO)[C@@H](O)[C@H]2O)c1-c1nc2ccccc2s1 qualifying_sign== quantitative_readout=23
structure_notation=Cc1nc(Nc2ccncc2)nc(N[C@@H]2C[C@H](CO)[C@@H](O)[C@H]2O)c1-c1nc2ccccc2s1 qualifying_sign== quantitative_readout=7
structure_notation=COc1ccc2nc(-c3c(Cl)nc(N)nc3N[C@@H]3C[C@H](CO)[C@@H](O)[C@H]3O)sc2c1 qualifying_sign=> quantitative_readout=25
structure_notation=Cc1nc(N)nc(N[C@@H]2C[C@H](CO)[C@@H](O)[C@H]2O)c1-c1nc2ccccc2s1 qualifying_sign== quantitative_readout=4
structure_notation=CCNc1nc(C)c(-c2nc3ccccc3s2)c(N[C@@H]2C[C@H](CO)[C@@H](O)[C@H]2O)n1 qualifying_sign== quantitative_readout=12
structure_notation=Cc1nc(NCCC(F)(F)F)nc(N[C@@H]2C[C@H](CO)[C@@H](O)[C@H]2O)c1-c1nc2ccccc2s1 qualifying_sign== quantitative_readout=9
structure_notation=CN(C)c1ccc2sc(-c3c(Cl)nc(N)nc3N[C@@H]3C[C@H](CO)[C@@H](O)[C@H]3O)nc2c1 qualifying_sign== quantitative_readout=25
